Overview of recorded pIC50 for various compounds
# assay.target: Histone deacetylase 3 (Homo sapiens)
# Sequence (O15379 whole entry): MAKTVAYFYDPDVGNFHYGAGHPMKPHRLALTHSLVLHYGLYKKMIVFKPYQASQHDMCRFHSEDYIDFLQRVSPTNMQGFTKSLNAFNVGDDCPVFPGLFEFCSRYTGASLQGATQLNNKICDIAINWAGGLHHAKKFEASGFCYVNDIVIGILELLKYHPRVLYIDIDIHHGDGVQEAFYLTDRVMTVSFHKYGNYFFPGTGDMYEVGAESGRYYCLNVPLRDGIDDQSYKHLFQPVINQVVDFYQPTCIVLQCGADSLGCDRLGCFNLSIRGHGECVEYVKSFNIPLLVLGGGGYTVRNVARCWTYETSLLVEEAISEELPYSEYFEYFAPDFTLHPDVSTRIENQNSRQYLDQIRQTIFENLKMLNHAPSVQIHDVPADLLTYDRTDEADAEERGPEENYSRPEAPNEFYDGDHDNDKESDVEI
# experiment.description: Inhibition of recombinant HDAC3 (unknown origin) using Ac-Leu-Gly-Lys (Ac)-AMC as substrate pretreated for 5 mins followed by substrate addition and measured after 30 mins
pIC50: −log10 of the molar value.

structure.smiles.string | pIC50
COc1cc(C(=O)c2csc(-c3ccc(OCc4ccc(/C=C/C(=O)NO)cc4)cc3)n2)cc(OC)c1OC | 5.05
COc1cc(C(=O)c2csc(-c3ccc(C#CCCC(=O)Nc4ccccc4N)cc3)n2)cc(OC)c1OC | 5.70
COc1cc(C(=O)c2csc(-c3ccc(OCCCC(=O)NO)cc3)n2)cc(OC)c1OC | 5.02
COc1cc(C(=O)c2csc(-c3ccc(NC(=O)CCC(=O)NO)cc3)n2)cc(OC)c1OC | 4.91
COc1cc(C(=O)c2csc(-c3ccc(NC(=O)CCCCCCC(=O)Nc4ccccc4N)cc3)n2)cc(OC)c1OC | 5.76

###

# assay.target: Protein deacetylase HDAC6 (Homo sapiens)
# experiment.description: Inhibition of full length N-terminal GST-tagged human recombinant HDAC6 (1 to 1215 residues) expressed in Baculovirus infected Sf9 cells using Ac-Leu-Gly-Lys (Ac)-AMC as substrate pretreated for 5 mins followed by substrate addition and measured after 30 mins
Overview of recorded IC50 for various compounds
endpoint.name: IC50

structure.smiles.string | result
COc1cc(C(=O)c2csc(-c3ccc(NC(=O)CCCC(=O)Nc4ccccc4N)cc3)n2)cc(OC)c1OC | 31 µM
COc1cc(C(=O)c2csc(-c3ccc(NC(=O)CC(=O)Nc4ccccc4N)cc3)n2)cc(OC)c1OC | 21.1 µM
COc1cc(C(=O)c2csc(-c3ccc(NC(=O)c4ccc(C(=O)Nc5ccccc5N)cc4)cc3)n2)cc(OC)c1OC | 36.3 µM

###

# assay.target: UniProt:Q13547
# Sequence (Q13547 whole entry, the tested form may be a part): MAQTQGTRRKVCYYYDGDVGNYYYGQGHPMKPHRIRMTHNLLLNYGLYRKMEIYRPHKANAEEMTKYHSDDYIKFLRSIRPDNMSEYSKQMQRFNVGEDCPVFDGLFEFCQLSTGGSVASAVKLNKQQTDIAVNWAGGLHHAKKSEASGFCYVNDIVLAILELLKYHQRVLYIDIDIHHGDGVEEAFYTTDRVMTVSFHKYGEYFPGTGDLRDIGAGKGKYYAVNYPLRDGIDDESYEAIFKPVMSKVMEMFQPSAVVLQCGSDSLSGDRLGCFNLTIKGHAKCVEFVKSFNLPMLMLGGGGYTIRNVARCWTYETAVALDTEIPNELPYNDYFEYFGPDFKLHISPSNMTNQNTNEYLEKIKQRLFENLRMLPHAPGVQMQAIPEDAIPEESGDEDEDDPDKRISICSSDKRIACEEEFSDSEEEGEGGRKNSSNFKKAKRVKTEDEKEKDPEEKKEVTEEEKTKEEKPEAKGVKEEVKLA
# experiment.description: Inhibition of full length recombinant human HDAC1 (1 to 482 residues) expressed in Baculovirus system using Ac-Leu-Gly-Lys (Ac)-AMC as substrate pretreated for 5 mins followed by substrate addition and measured after 30 mins
pIC50: −log10 of the molar value.
Label Fulfilled when pIC50 is at or above 5; otherwise label Not fulfilled.

structure.smiles.string | assay.target | group
COc1cc(C(=O)c2csc(-c3ccc(NC(=O)/C=C/C(=O)NO)cc3)n2)cc(OC)c1OC | UniProt:Q13547 | Not fulfilled
COc1cc(C(=O)c2csc(-c3ccc(OCCCC(=O)NO)cc3)n2)cc(OC)c1OC | UniProt:Q13547 | Fulfilled
COc1cc(C(=O)c2csc(-c3ccc(NC(=O)CCCCCC(=O)NO)cc3)n2)cc(OC)c1OC | UniProt:Q13547 | Not fulfilled
COc1cc(C(=O)c2csc(-c3ccc(OCc4ccc(/C=C/C(=O)NO)cc4)cc3)n2)cc(OC)c1OC | UniProt:Q13547 | Fulfilled

###

# experiment.description: Antiproliferative activity against human YCC3/7 cells assessed as inhibition of cell viability
# Assay type: functional, cell-based
pIC50: −log10 of the molar value.

structure.smiles.string | pIC50
Nc1ccccc1NC(=O)c1ccc(CNC(=O)OCc2cccnc2)cc1 | 4.89
COc1cc(C(=O)c2csc(-c3ccccc3)n2)cc(OC)c1OC | 5.71
COc1cc(C(=O)c2csc(-c3ccc(OCCCC(=O)NO)cc3)n2)cc(OC)c1OC | 5.89
COc1cc(C(=O)c2csc(-c3ccc(NC(=O)CCCCCCC(=O)Nc4ccccc4N)cc3)n2)cc(OC)c1OC | 5.27
COc1cc(C(=O)c2csc(-c3ccc(/C=C/C(=O)NO)cc3)n2)cc(OC)c1OC | 5.21
COc1cc(C(=O)c2csc(-c3ccc(NC(=O)CCCC(=O)Nc4ccccc4N)cc3)n2)cc(OC)c1OC | 6.25

###

# assay.target: Tubulin (Sus scrofa) (UniProt P02554+P02550)
# Sequence (P02550 whole entry, looked up): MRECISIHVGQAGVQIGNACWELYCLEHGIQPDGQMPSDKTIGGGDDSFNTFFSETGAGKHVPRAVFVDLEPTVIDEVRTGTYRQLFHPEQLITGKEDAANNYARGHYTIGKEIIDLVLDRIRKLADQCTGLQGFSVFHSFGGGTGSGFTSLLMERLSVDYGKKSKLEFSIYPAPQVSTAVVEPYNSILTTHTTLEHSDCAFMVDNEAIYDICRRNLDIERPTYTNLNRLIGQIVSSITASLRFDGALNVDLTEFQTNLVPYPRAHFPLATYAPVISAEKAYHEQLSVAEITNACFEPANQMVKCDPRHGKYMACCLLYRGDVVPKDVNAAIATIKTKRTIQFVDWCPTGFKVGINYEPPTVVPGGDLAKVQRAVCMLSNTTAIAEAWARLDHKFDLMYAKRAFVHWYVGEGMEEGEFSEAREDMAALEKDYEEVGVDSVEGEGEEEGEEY
# Sequence (P02554 whole entry, looked up): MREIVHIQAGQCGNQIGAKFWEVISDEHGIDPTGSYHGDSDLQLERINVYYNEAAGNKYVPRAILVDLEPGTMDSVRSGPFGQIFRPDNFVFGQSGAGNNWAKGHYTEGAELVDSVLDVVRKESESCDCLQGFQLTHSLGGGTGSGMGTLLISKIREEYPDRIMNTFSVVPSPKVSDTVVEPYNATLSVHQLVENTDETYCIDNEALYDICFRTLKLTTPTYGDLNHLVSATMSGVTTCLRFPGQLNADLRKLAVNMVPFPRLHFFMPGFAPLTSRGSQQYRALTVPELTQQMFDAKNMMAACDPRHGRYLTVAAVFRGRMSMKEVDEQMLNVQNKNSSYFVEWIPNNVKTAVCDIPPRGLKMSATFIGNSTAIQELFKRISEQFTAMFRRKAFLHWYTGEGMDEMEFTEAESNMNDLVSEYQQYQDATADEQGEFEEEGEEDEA
# experiment.description: Inhibition of pig brain tubulin polymerization at 10 uM measured after 20 mins by spectrometric method relative to control

structure.smiles.string | inhibition [%]
COc1cc(C(=O)c2csc(-c3ccc(NC(=O)CCCCC(=O)Nc4ccccc4N)cc3)n2)cc(OC)c1OC | 28
COc1cc(C(=O)c2csc(-c3ccc(NCCC(=O)Nc4ccccc4N)cc3)n2)cc(OC)c1OC | 19
COc1cc(C(=O)c2csc(-c3ccc(NC(=O)CCCCCC(=O)Nc4ccccc4N)cc3)n2)cc(OC)c1OC | 24
COc1cc(C(=O)c2csc(-c3ccc(NC(=O)CC(=O)Nc4ccccc4N)cc3)n2)cc(OC)c1OC | 65
COc1cc(C(=O)c2csc(-c3ccc(NC(=O)/C=C/C(=O)Nc4ccccc4N)cc3)n2)cc(OC)c1OC | 67
COc1cc(C(=O)c2csc(-c3ccc(/C=C/C(=O)Nc4ccccc4N)cc3)n2)cc(OC)c1OC | 30
COc1cc(C(=O)c2csc(-c3ccccc3)n2)cc(OC)c1OC | 78
COc1cc(C(=O)c2csc(-c3ccc(/C=C/C(=O)NO)cc3)n2)cc(OC)c1OC | 47
COc1cc(C(=O)c2csc(-c3ccc(OCCCC(=O)NO)cc3)n2)cc(OC)c1OC | 39
COc1cc(C(=O)c2csc(-c3ccc(OCCCCCCC(=O)Nc4ccccc4N)cc3)n2)cc(OC)c1OC | 18
COc1cc(C(=O)c2csc(-c3ccc(NC(=O)CCCC(=O)Nc4ccccc4N)cc3)n2)cc(OC)c1OC | 70

###

# assay.target: Histone deacetylase 8 (Homo sapiens)
# Sequence (Q9BY41 whole entry): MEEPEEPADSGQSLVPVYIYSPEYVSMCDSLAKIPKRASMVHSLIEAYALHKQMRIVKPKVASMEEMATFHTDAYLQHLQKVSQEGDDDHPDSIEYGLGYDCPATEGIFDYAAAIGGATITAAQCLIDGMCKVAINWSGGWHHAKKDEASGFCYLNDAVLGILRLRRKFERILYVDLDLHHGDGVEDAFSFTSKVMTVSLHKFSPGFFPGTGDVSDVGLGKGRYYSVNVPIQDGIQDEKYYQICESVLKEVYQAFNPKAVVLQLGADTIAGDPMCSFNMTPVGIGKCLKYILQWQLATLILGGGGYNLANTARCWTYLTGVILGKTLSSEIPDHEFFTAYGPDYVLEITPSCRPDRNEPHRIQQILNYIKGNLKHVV
# experiment.description: Inhibition of full length C-terminal his-tagged human recombinant HDAC8 ([…]) expressed in baculovirus in Sf9 insect cells using Ac-Leu-Gly-Lys (Tfa)-AMC as substrate pretreated for 5 mins followed by substrate addition and measured after 30 mins
endpoint.name: IC50 (µM)

structure.smiles.string | assay.target | endpoint.name | result.unit | numeric.readout
COc1cc(C(=O)c2csc(-c3ccc(/C=C/C(=O)NO)cc3)n2)cc(OC)c1OC | Histone deacetylase 8 (Homo sapiens) | IC50 | µM | 2.71
COc1cc(C(=O)c2csc(-c3ccc(NC(=O)CCC(=O)NO)cc3)n2)cc(OC)c1OC | Histone deacetylase 8 (Homo sapiens) | IC50 | µM | 5.14
COc1cc(C(=O)c2csc(-c3ccc(/C=C/C(=O)Nc4ccccc4N)cc3)n2)cc(OC)c1OC | Histone deacetylase 8 (Homo sapiens) | IC50 | µM | 3.11
COc1cc(C(=O)c2csc(-c3ccc(NC(=O)CCCCC(=O)NO)cc3)n2)cc(OC)c1OC | Histone deacetylase 8 (Homo sapiens) | IC50 | µM | 3.28
COc1cc(C(=O)c2csc(-c3ccc(NC(=O)CCCC(=O)Nc4ccccc4N)cc3)n2)cc(OC)c1OC | Histone deacetylase 8 (Homo sapiens) | IC50 | µM | 11.6
COc1cc(C(=O)c2csc(-c3ccc(NC(=O)CCCCCC(=O)NO)cc3)n2)cc(OC)c1OC | Histone deacetylase 8 (Homo sapiens) | IC50 | µM | 4.17
COc1cc(C(=O)c2csc(-c3ccc(OCc4ccc(/C=C/C(=O)NO)cc4)cc3)n2)cc(OC)c1OC | Histone deacetylase 8 (Homo sapiens) | IC50 | µM | 7.1
COc1cc(C(=O)c2csc(-c3ccc(NC(=O)CCCC(=O)NO)cc3)n2)cc(OC)c1OC | Histone deacetylase 8 (Homo sapiens) | IC50 | µM | 6.32
COc1cc(C(=O)c2csc(-c3ccc(C#CCCC(=O)Nc4ccccc4N)cc3)n2)cc(OC)c1OC | Histone deacetylase 8 (Homo sapiens) | IC50 | µM | 6.55
COc1cc(C(=O)c2csc(-c3ccc(NCC(=O)Nc4ccccc4N)cc3)n2)cc(OC)c1OC | Histone deacetylase 8 (Homo sapiens) | IC50 | µM | 9.11
COc1cc(C(=O)c2csc(-c3ccc(NC(=O)CCCCCCC(=O)Nc4ccccc4N)cc3)n2)cc(OC)c1OC | Histone deacetylase 8 (Homo sapiens) | IC50 | µM | 10.2
COc1cc(C(=O)c2csc(-c3ccc(NC(=O)/C=C/C(=O)NO)cc3)n2)cc(OC)c1OC | Histone deacetylase 8 (Homo sapiens) | IC50 | µM | 3.9
COc1cc(C(=O)c2csc(-c3ccc(NC(=O)CCCCCC(=O)Nc4ccccc4N)cc3)n2)cc(OC)c1OC | Histone deacetylase 8 (Homo sapiens) | IC50 | µM | 8.5

###

# assay.target: Protein deacetylase HDAC6 (Homo sapiens, UniProt Q9UBN7)
# Sequence (Q9UBN7 whole entry): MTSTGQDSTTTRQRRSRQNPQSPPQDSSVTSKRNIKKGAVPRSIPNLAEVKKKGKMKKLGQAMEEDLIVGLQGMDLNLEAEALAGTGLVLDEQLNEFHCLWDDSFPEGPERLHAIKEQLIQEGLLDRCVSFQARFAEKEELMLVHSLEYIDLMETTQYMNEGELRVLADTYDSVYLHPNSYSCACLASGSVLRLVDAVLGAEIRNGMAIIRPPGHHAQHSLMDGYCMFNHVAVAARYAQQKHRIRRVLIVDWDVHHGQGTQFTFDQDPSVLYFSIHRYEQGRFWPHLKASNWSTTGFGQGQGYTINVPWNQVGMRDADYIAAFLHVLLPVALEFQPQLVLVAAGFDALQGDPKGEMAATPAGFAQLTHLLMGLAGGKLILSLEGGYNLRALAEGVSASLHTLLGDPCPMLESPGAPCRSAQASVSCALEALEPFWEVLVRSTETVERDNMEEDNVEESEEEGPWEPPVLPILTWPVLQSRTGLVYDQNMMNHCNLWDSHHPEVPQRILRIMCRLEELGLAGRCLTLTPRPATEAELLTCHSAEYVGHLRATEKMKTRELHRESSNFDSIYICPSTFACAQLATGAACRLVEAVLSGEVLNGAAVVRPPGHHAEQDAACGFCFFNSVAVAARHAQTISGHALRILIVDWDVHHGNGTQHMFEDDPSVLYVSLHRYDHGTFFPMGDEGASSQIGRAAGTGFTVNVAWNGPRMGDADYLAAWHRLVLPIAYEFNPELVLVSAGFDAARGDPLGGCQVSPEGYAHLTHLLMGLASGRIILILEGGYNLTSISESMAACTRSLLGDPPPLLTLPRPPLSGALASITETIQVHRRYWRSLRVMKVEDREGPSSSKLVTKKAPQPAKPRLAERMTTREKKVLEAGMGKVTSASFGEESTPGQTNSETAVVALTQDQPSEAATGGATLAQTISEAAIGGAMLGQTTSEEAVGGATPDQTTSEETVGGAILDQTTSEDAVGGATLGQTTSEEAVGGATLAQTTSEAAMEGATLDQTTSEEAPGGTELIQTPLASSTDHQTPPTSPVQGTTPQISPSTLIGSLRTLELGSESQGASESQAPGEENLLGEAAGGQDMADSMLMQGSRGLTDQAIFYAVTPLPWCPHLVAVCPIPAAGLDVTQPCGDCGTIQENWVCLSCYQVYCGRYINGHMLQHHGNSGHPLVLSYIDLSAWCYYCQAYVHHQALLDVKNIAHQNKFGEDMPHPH
# experiment.description: Inhibition of full length N-terminal GST-tagged human recombinant HDAC6 (1 to 1215 residues) expressed in Baculovirus infected Sf9 cells using Ac-Leu-Gly-Lys (Ac)-AMC as substrate pretreated for 5 mins followed by substrate addition and measured after 30 mins
pIC50: −log10 of the molar value.
Label Y when pIC50 is at or above 5; otherwise label N.

structure.smiles.string | assay.target | group
COc1cc(C(=O)c2csc(-c3ccc(NC(=O)CCCC(=O)NO)cc3)n2)cc(OC)c1OC | Protein deacetylase HDAC6 (Homo sapiens, UniProt Q9UBN7) | Y
COc1cc(C(=O)c2csc(-c3ccc(NC(=O)CCCCC(=O)NO)cc3)n2)cc(OC)c1OC | Protein deacetylase HDAC6 (Homo sapiens, UniProt Q9UBN7) | Y
COc1cc(C(=O)c2csc(-c3ccc(/C=C/C(=O)Nc4ccccc4N)cc3)n2)cc(OC)c1OC | Protein deacetylase HDAC6 (Homo sapiens, UniProt Q9UBN7) | N
COc1cc(C(=O)c2csc(-c3ccc(NC(=O)CCCCCC(=O)NO)cc3)n2)cc(OC)c1OC | Protein deacetylase HDAC6 (Homo sapiens, UniProt Q9UBN7) | Y
COc1cc(C(=O)c2csc(-c3ccc(NC(=O)CCCCC(=O)Nc4ccccc4N)cc3)n2)cc(OC)c1OC | Protein deacetylase HDAC6 (Homo sapiens, UniProt Q9UBN7) | N
COc1cc(C(=O)c2csc(-c3ccc(/C=C/C(=O)NO)cc3)n2)cc(OC)c1OC | Protein deacetylase HDAC6 (Homo sapiens, UniProt Q9UBN7) | Y
COc1cc(C(=O)c2csc(-c3ccc(NCCC(=O)Nc4ccccc4N)cc3)n2)cc(OC)c1OC | Protein deacetylase HDAC6 (Homo sapiens, UniProt Q9UBN7) | N
COc1cc(C(=O)c2csc(-c3ccc(OCc4ccc(/C=C/C(=O)NO)cc4)cc3)n2)cc(OC)c1OC | Protein deacetylase HDAC6 (Homo sapiens, UniProt Q9UBN7) | Y
COc1cc(C(=O)c2csc(-c3ccc(C#CCCC(=O)Nc4ccccc4N)cc3)n2)cc(OC)c1OC | Protein deacetylase HDAC6 (Homo sapiens, UniProt Q9UBN7) | N
COc1cc(C(=O)c2csc(-c3ccc(NC(=O)CCC(=O)NO)cc3)n2)cc(OC)c1OC | Protein deacetylase HDAC6 (Homo sapiens, UniProt Q9UBN7) | Y
COc1cc(C(=O)c2csc(-c3ccc(NCC(=O)Nc4ccccc4N)cc3)n2)cc(OC)c1OC | Protein deacetylase HDAC6 (Homo sapiens, UniProt Q9UBN7) | N
COc1cc(C(=O)c2csc(-c3ccc(OCCCCCCC(=O)Nc4ccccc4N)cc3)n2)cc(OC)c1OC | Protein deacetylase HDAC6 (Homo sapiens, UniProt Q9UBN7) | N
COc1cc(C(=O)c2csc(-c3ccc(OCc4ccc(C(=O)NO)cc4)cc3)n2)cc(OC)c1OC | Protein deacetylase HDAC6 (Homo sapiens, UniProt Q9UBN7) | Y
COc1cc(C(=O)c2csc(-c3ccc(OCCCC(=O)NO)cc3)n2)cc(OC)c1OC | Protein deacetylase HDAC6 (Homo sapiens, UniProt Q9UBN7) | Y
COc1cc(C(=O)c2csc(-c3ccc(NC(=O)/C=C/C(=O)Nc4ccccc4N)cc3)n2)cc(OC)c1OC | Protein deacetylase HDAC6 (Homo sapiens, UniProt Q9UBN7) | N
COc1cc(C(=O)c2csc(-c3ccc(NC(=O)/C=C/C(=O)NO)cc3)n2)cc(OC)c1OC | Protein deacetylase HDAC6 (Homo sapiens, UniProt Q9UBN7) | Y
COc1cc(C(=O)c2csc(-c3ccc(NC(=O)CCCCCC(=O)Nc4ccccc4N)cc3)n2)cc(OC)c1OC | Protein deacetylase HDAC6 (Homo sapiens, UniProt Q9UBN7) | N
COc1cc(C(=O)c2csc(-c3ccc(NC(=O)CCCCCCC(=O)Nc4ccccc4N)cc3)n2)cc(OC)c1OC | Protein deacetylase HDAC6 (Homo sapiens, UniProt Q9UBN7) | N
